test: Pharmacokinetic evaluation in dogs after a 10 mg/kg dose; conditions: dog, plasma, po, t1/2 (biological half life), oral 10 mg/kg, HPLC (parent drug)
Sorting guide: entries reporting half-life beneath 10 h go in the fulfilled pile, the rest go in the not fulfilled pile.

1. CC[C@H]1OC(=O)[C@H](C)[C@@H](O[C@H]2C[C@@](C)(OC)[C@@H](O)[C@H](C)O2)[C@H](C)[C@@H](O[C@@H]2O[C@H](C)C[C@H](N(C)C)[C@H]2O)[C@](C)(O)C[C@@H](C)[C@@H]2O[C@@]1(C)[C@@H](N)[C@H]2C
fulfilled
2. CC[C@H]1OC(=O)[C@H](C)[C@@H](O[C@H]2C[C@@](C)(OC)[C@@H](O)[C@H](C)O2)[C@H](C)[C@@H](O[C@@H]2O[C@H](C)C[C@H](N(C)C)[C@H]2O)[C@](C)(O)C[C@@H](C)[C@@H]2O[C@@]1(C)[C@@H](O)[C@H]2C
fulfilled
3. CC[C@H]1OC(=O)[C@H](C)[C@@H](O[C@H]2C[C@@](C)(OC)[C@@H](N)[C@H](C)O2)[C@H](C)[C@@H](O[C@@H]2O[C@H](C)C[C@H](N(C)C)[C@H]2O)[C@](C)(O)C[C@@H](C)[C@@H]2O[C@@]1(C)[C@@H](N)[C@H]2C
not fulfilled
4. CC[C@H]1OC(=O)[C@H](C)[C@@H](O[C@H]2C[C@@](C)(OC)[C@H](N)[C@H](C)O2)[C@H](C)[C@@H](O[C@@H]2O[C@H](C)C[C@H](N(C)C)[C@H]2O)[C@](C)(O)C[C@@H](C)[C@@H]2O[C@@]1(C)[C@@H](O)[C@H]2C
fulfilled
